As shown below, each of these proteins has a reported Kcat/Km of dephosphorylation of the ASK1 phosphopeptide (20 nM enzyme) value.
- tested.target: the molecule itself
- assay.remarks: cell-based or functional assay
readout.type: Kcat/Km of dephosphorylation of the ASK1 phosphopeptide (20 nM enzyme) (min⁻¹ M⁻¹)

- protein: "∆48 PGAM5 Y198E (domain or fragment, UniProt Q96HS1 49-289, looked up, PGAM5 long isoform (PGAM5L), residues 49-289, Y198E; also called ∆48 Y198E; source: E. coli BL21 DE3 pLysS, purified (Ni-NTA, SEC)) GGARPGPGVWDPNWDRREPLSLINVRKRNVESGEEELASKLDHYKAKATRHIFLIRHSQYHVDGSLEKDRTLTPLGREQAELTGLRLASLGLKFNKIVHSSMTRAIETTDIISRHLPGVCKVSTDLLREGAPIEPDPPVSHWKPEAVQYEEDGARIEAAFRNYIHRADARQEEDSYEIFICHANVIRYIVCRALQFPPEGWLRLSLNNGSITHLVIRPNGRVALRTLGDTGFMPPDKITRS"
  recorded.number: 600000
- protein: "∆48 PGAM5 R288E (domain or fragment, UniProt Q96HS1 49-289, looked up, PGAM5 long isoform (PGAM5L), residues 49-289, R288E; also called ∆48 R288E; source: E. coli BL21 DE3 pLysS, purified (Ni-NTA, SEC)) GGARPGPGVWDPNWDRREPLSLINVRKRNVESGEEELASKLDHYKAKATRHIFLIRHSQYHVDGSLEKDRTLTPLGREQAELTGLRLASLGLKFNKIVHSSMTRAIETTDIISRHLPGVCKVSTDLLREGAPIEPDPPVSHWKPEAVQYYEDGARIEAAFRNYIHRADARQEEDSYEIFICHANVIRYIVCRALQFPPEGWLRLSLNNGSITHLVIRPNGRVALRTLGDTGFMPPDKITES"
  recorded.number: 820000
- protein: "∆48 PGAM5 R65A (domain or fragment, UniProt Q96HS1 49-289, looked up, PGAM5 long isoform (PGAM5L), residues 49-289, R65A; also called ∆48 R65A; source: E. coli BL21 DE3 pLysS, purified (Ni-NTA, SEC)) GGARPGPGVWDPNWDRAEPLSLINVRKRNVESGEEELASKLDHYKAKATRHIFLIRHSQYHVDGSLEKDRTLTPLGREQAELTGLRLASLGLKFNKIVHSSMTRAIETTDIISRHLPGVCKVSTDLLREGAPIEPDPPVSHWKPEAVQYYEDGARIEAAFRNYIHRADARQEEDSYEIFICHANVIRYIVCRALQFPPEGWLRLSLNNGSITHLVIRPNGRVALRTLGDTGFMPPDKITRS"
  recorded.number: 190000
- protein: "∆48 PGAM5 (residues 49–289), wild type (domain or fragment, UniProt Q96HS1 49-289, looked up, PGAM5 long isoform (PGAM5L, residues 1-289), residues 49-289: linker domain with the multimerization motif (58-63) and the PGAM phosphatase domain; His6 is followed by a TEV site (ENLYFQS); the methods describe no TEV cleavage; also called Δ48 PGAM5; ∆48 WT; source: E. coli BL21 DE3 pLysS, purified (Ni-NTA, SEC on Superose 6)) GGARPGPGVWDPNWDRREPLSLINVRKRNVESGEEELASKLDHYKAKATRHIFLIRHSQYHVDGSLEKDRTLTPLGREQAELTGLRLASLGLKFNKIVHSSMTRAIETTDIISRHLPGVCKVSTDLLREGAPIEPDPPVSHWKPEAVQYYEDGARIEAAFRNYIHRADARQEEDSYEIFICHANVIRYIVCRALQFPPEGWLRLSLNNGSITHLVIRPNGRVALRTLGDTGFMPPDKITRS"
  recorded.number: "1.19e+06"
